Biological target: gp120 Bal (HIV (Bal))
Experiment: single-point ELISA at EC50 conc. of A-1
PROPERTY_NAME: ELISA A450 (A450)

INSERT INTO measurements (binder, value_unit, numeric_result) VALUES
  ('1.12.17-1 (antibody, human IgG1, kappa, V domains shown) VH: QVQLLQSGAAVTKPGASVRVSCEASGYNIRDYFIHWVRQAPGQGLQWVGWINPKTGQPNNPRQFQGRVSLTRHASWDFDTFSFYMDLKALRSDDTAVYFCARQRSDYWDFDVWGSGTQVTVSS VL: DIQMTQSPSSLSASVGDTVTITCQANGYLNWYQQRRGKAPKLLIYDGSKLERGVPSRFSGRRWGQEYNLTINNLQPEDIATYFCQVYEFFGPGTRLDLKR', 'A450', 0.9),
  ('1.14.17-1 (antibody, human IgG1, kappa, V domains shown) VH: QVQLLQSGAAVTKPGASVRVSCEASGYNIRDYFMHWVRQAPGQGLQWVGWINPKTGQPNNPRQFQGRVSLTRHASWDFDTFSAYMDLKALRSDDTAVYFCARQRSDYWDFDVWGSGTQVTVSS VL: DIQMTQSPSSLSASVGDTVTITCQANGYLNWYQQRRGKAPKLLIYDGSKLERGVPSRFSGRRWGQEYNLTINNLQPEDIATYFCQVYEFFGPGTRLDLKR', 'A450', 0.89),
  ('1.1.35-1 (antibody, human IgG1, kappa, V domains shown) VH: QVQLLQSGAAVTKPGASVRVSCEASGYNIRDYFIHWWRQAPGQGLQWVGWINPKTGQPNNPRQFQGRVSLTRHASWDFDTFSFYMDLKALRSDDTAVYFCARQRSDYWDFDVWGSGTQVTVSS VL: DIQMTQSPSSLSASVGDRVTITCQANGYLNWYQQKPGKAPKLLIYDGSNLETGVPSRFSGSRWGQEYTLTISSLQPEDIATYFCQVYEFVGPGTNLDIKR', 'A450', 0.96),
  ('1.34.35-1 (antibody, human IgG1, kappa, V domains shown) VH: QVQLVQSGAEVKKPGASVRVSCKASGYNIRDYFIHWWRQAPGQGLQWVGWINPKTGQPNNPRQFQGRVTLTRHASWDFDTFSFYMDLKALRSDDTAVYFCARQRTDYWDFDVWGSGTQVTVSS VL: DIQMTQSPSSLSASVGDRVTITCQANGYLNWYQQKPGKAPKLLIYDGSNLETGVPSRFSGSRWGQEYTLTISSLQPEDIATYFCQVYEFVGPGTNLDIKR', 'A450', 0.94);
